This collection of values is drawn from the RNAGym collection of RNA variant scans (doi:10.7554/elife.80360).

B1: HDV Ribozyme (parent)
chain: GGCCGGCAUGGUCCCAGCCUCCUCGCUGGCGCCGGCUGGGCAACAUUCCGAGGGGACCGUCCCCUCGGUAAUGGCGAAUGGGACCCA

Variants of: B1
TEST_METHOD_NOTES: self-cleavage, relative activity (ratio to wild type); higher = more cleavage; co-transcriptional
Grouping by measured self-cleavage is done with the following cut points: Low: < 0.2; Medium: ≥ 0.2 and < 0.6; High: ≥ 0.6

Known results for variants:
- MUTANT_ID: "C15U C63A"
  CATEGORY: "High"
- MUTANT_ID: "G2C C64G"
  CATEGORY: "Low"

Please indicate the class for G28U C48U based on its self-cleavage. Low

Please indicate the class for G6A U69G based on its self-cleavage. High

Please indicate the class for G11C G52A based on its self-cleavage. Medium

Please indicate the class for C75G C85A based on its self-cleavage. Medium

Please indicate the class for C64A G67A based on its self-cleavage. Medium

Please indicate the class for U20A C86G based on its self-cleavage. Low

Please indicate the class for C19G A77C based on its self-cleavage. Low

Please indicate the class for U20C C75G based on its self-cleavage. Low

Please indicate the class for A16U U20G based on its self-cleavage. Low

Please indicate the class for G52C G74C based on its self-cleavage. Low

Please indicate the class for C26A C64A based on its self-cleavage. High

Please indicate the class for G52U C66G based on its self-cleavage. Medium

Please indicate the class for C64G A71G based on its self-cleavage. High

Please indicate the class for G76A U79A based on its self-cleavage. High

Please indicate the class for G1A A45C based on its self-cleavage. Medium

Please indicate the class for C26G A71C based on its self-cleavage. High

Please indicate the class for C3U C85G based on its self-cleavage. High

Please indicate the class for C64G A70G based on its self-cleavage. High

Please indicate the class for G6C U20G based on its self-cleavage. Low

Please indicate the class for G68U G82A based on its self-cleavage. Low
